# assay_info: Tissue levels after a single oral administration in mice (microbiological assay)
# Type: in vivo
# test_settings: mouse, liver, 50 mg/kg oral, 2.0 hour; read-out: Liver concentration
measured_property: concentration at 2 h (ng/mL)

>  <compound>
CCn1cc(C(=O)O)c(=O)c2cc(F)c(N3CCN(Cc4ccc(N)cc4)CC3)c(F)c21 [compound (I)]

>  <endpoint_unit>
ng/mL

>  <numeric_value>
12000

$$$$

###

# assay_info: Tissue levels after a single oral administration in mice (microbiological assay)
# Format: in vivo
# test_settings: mouse, kidney, 50 mg/kg oral, 6.0 hour; read-out: Kidney concentration
measured_property: concentration at 6 h

>  <compound>
CCn1cc(C(=O)O)c(=O)c2cc(F)c(N3CCN(Cc4ccc(N)cc4)CC3)c(F)c21 [compound (I)]

>  <result>
4600 ng/mL

$$$$
